Tested on: Streptococcus pneumoniae
Experiment: Antibacterial activity against erythromycin-resistant Streptococcus pneumoniae A22072 expressing mef gene by the broth microdilution method
Format: functional
TEST READOUT: MIC (µg/mL)
Please respond with the number in µg/mL and leave the unit unwritten.

Use the examples below as a reference point.
1) CC[C@H]1OC(=O)[C@H](C)[C@@H](O[C@H]2C[C@@](C)(OC)[C@@H](OC(=O)NCCCCNC(=O)c3ccc(OC)cc3)[C@H](C)O2)[C@H](C)[C@@H](O[C@@H]2O[C@H](C)C[C@H](N(C)C)[C@H]2O)[C@](C)(O)C[C@@H](C)CN(C)[C@H](C)[C@H]2OC(=O)O[C@@]21C : 0.25
2) CC[C@H]1OC(=O)[C@H](C)[C@@H](O[C@H]2C[C@@](C)(OC)[C@@H](OC(=O)NCCCCNC(=O)c3ccc(Cl)cc3)[C@H](C)O2)[C@H](C)[C@@H](O[C@@H]2O[C@H](C)C[C@H](N(C)C)[C@H]2O)[C@](C)(O)C[C@@H](C)CN(C)[C@H](C)[C@H]2OC(=O)O[C@@]21C : 1
3) CC[C@H]1OC(=O)[C@H](C)[C@@H](O[C@H]2C[C@@](C)(OC)[C@@H](OC(=O)NNC(=O)c3ccc(F)cc3)[C@H](C)O2)[C@H](C)[C@@H](O[C@@H]2O[C@H](C)C[C@H](N(C)C)[C@H]2O)[C@](C)(O)C[C@@H](C)CN(C)[C@H](C)[C@H]2OC(=O)O[C@@]21C : 1

// switching to the query compound
Fill in the blank: the reported MIC of "CC[C@H]1OC(=O)[C@H](C)[C@@H](O[C@H]2C[C@@](C)(OC)[C@@H](OC(=O)NCCNC(=O)c3ccc(Br)cc3)[C@H](C)O2)[C@H](C)[C@@H](O[C@@H]2O[C@H](C)C[C@H](N(C)C)[C@H]2O)[C@](C)(O)C[C@@H](C)CN(C)[C@H](C)[C@H]2OC(=O)O[C@@]21C" is ____. 0.25

* * *

System: Streptococcus pneumoniae
Assay: Antibacterial activity against erythromycin-resistant Streptococcus pneumoniae A22072 expressing mef gene by the broth microdilution method
Format: functional
TEST READOUT: MIC (µg/mL)
Please respond with the number in µg/mL and leave the unit unwritten.

1. CC[C@H]1OC(=O)[C@H](C)[C@@H](O[C@H]2C[C@@](C)(OC)[C@@H](OC(=O)NNC(=O)c3ccc(OC)cc3)[C@H](C)O2)[C@H](C)[C@@H](O[C@@H]2O[C@H](C)C[C@H](N(C)C)[C@H]2O)[C@](C)(O)C[C@@H](C)CN(C)[C@H](C)[C@H]2OC(=O)O[C@@]21C : 0.25
2. CC[C@H]1OC(=O)[C@H](C)[C@@H](O[C@H]2C[C@@](C)(OC)[C@@H](OC(=O)NCCCCNC(=O)c3ccc(Br)cc3)[C@H](C)O2)[C@H](C)[C@@H](O[C@@H]2O[C@H](C)C[C@H](N(C)C)[C@H]2O)[C@](C)(O)C[C@@H](C)CN(C)[C@H](C)[C@H]2OC(=O)O[C@@]21C : 1

// switching to the query compound
Fill in the blank: the reported MIC of "CC[C@H]1OC(=O)[C@H](C)[C@@H](O[C@H]2C[C@@](C)(OC)[C@@H](OC(=O)NCCNC(=O)c3ccc([N+](=O)[O-])cc3)[C@H](C)O2)[C@H](C)[C@@H](O[C@@H]2O[C@H](C)C[C@H](N(C)C)[C@H]2O)[C@](C)(O)C[C@@H](C)CN(C)[C@H](C)[C@H]2OC(=O)O[C@@]21C" is ____. 0.5

* * *

Test system: Streptococcus pneumoniae
Experiment: Antibacterial activity against erythromycin-resistant Streptococcus pneumoniae AB11 expressing erm and mef gene by the broth microdilution method
Format: functional
TEST READOUT: MIC (µg/mL)
Please respond with the number in µg/mL and leave the unit unwritten.

Fill in the blank: the reported MIC of "CC[C@H]1OC(=O)[C@H](C)[C@@H](O[C@H]2C[C@@](C)(OC)[C@@H](OC(=O)NNC(=O)c3cc([N+](=O)[O-])cc([N+](=O)[O-])c3)[C@H](C)O2)[C@H](C)[C@@H](O[C@@H]2O[C@H](C)C[C@H](N(C)C)[C@H]2O)[C@](C)(O)C[C@@H](C)CN(C)[C@H](C)[C@H]2OC(=O)O[C@@]21C" is ____. 32

Same lookup for "CC[C@H]1OC(=O)[C@H](C)[C@@H](O[C@H]2C[C@@](C)(OC)[C@@H](OC(=O)NCCCCNC(=O)c3ccccc3OC)[C@H](C)O2)[C@H](C)[C@@H](O[C@@H]2O[C@H](C)C[C@H](N(C)C)[C@H]2O)[C@](C)(O)C[C@@H](C)CN(C)[C@H](C)[C@H]2OC(=O)O[C@@]21C" , please. 16

Same lookup for "CC[C@H]1OC(=O)[C@H](C)[C@@H](O[C@H]2C[C@@](C)(OC)[C@@H](OC(=O)NCCNC(=O)c3ccc(Br)cc3)[C@H](C)O2)[C@H](C)[C@@H](O[C@@H]2O[C@H](C)C[C@H](N(C)C)[C@H]2O)[C@](C)(O)C[C@@H](C)CN(C)[C@H](C)[C@H]2OC(=O)O[C@@]21C" , please. 8
